Reported values of IC50 for individual entries
System: Toxoplasma gondii
Experiment: Antimicrobial activity against Toxoplasma gondii RH infected in HFF cells by plaque assay
Type: functional, organism-based
readoutType: IC50 (nM)

CCC(C)Nc1c([N+](=O)[O-])cc(C(C)(C)C)cc1[N+](=O)[O-] (stereo not given)    1800
CCCCN(CC)c1c([N+](=O)[O-])cc(C(F)(F)F)cc1[N+](=O)[O-]    1500
CCCN(CCC)c1c([N+](=O)[O-])cc(C(C)C)cc1[N+](=O)[O-]    880
CCC(CC)Nc1c([N+](=O)[O-])cc(C)c(C)c1[N+](=O)[O-]    260
C=C(C)CN(CC)c1c([N+](=O)[O-])cc(C(F)(F)F)cc1[N+](=O)[O-]    260

* * *

System: Toxoplasma gondii
Test: Antimicrobial activity against Toxoplasma gondii RH containing alpha1-tubulin T239I mutation infected in HFF cells by plaque assay
Type: functional, organism-based
pIC50: −log10 of the molar value.
readoutType: pIC50

CCCN(CC1CC1)c1c([N+](=O)[O-])cc(C(F)(F)F)cc1[N+](=O)[O-] [PROFLURALIN]    4.66
CCCN(CCC)c1c([N+](=O)[O-])cc(S(C)(=O)=O)cc1[N+](=O)[O-] [NITRALIN]    4.52
CCCN(CCC)c1c([N+](=O)[O-])cc(S(N)(=O)=O)cc1[N+](=O)[O-] [ORYZALIN]    4.60
CCCN(CCC)c1c([N+](=O)[O-])cc(S(=O)(=O)Nc2ccccc2)cc1[N+](=O)[O-]    4.77
CCCN(CCC)c1c([N+](=O)[O-])cc(C(C)C)cc1[N+](=O)[O-] [ISOPROPALIN]    4.82
CCC(CC)Nc1c([N+](=O)[O-])cc(C)c(C)c1[N+](=O)[O-] [PENDIMETHALIN]    4.91
CCN(CC)c1c([N+](=O)[O-])cc(C(F)(F)F)c(N)c1[N+](=O)[O-] [DINITRAMINE]    4.58
CCC(C)Nc1c([N+](=O)[O-])cc(C(C)(C)C)cc1[N+](=O)[O-] (stereo not drawn) [BUTRALIN]    4.54
C=C(C)CN(CC)c1c([N+](=O)[O-])cc(C(F)(F)F)cc1[N+](=O)[O-] [ETHALFLURALIN]    4.54
CCCCN(CC)c1c([N+](=O)[O-])cc(C(F)(F)F)cc1[N+](=O)[O-] [BENFLURALIN]    4.64
COP(=S)(NC(C)C)Oc1ccc(C)cc1[N+](=O)[O-] (stereo not drawn) [AMIPROPHOS METHYL]    4.55
CCCN(CCC)c1c([N+](=O)[O-])cc(C(F)(F)F)cc1[N+](=O)[O-] [TRIFLURALIN]    4.63
CCCN(CCCl)c1c([N+](=O)[O-])cc(C(F)(F)F)cc1[N+](=O)[O-] [FLUCHLORALIN]    4.69

* * *

System: Toxoplasma gondii
Assay: Antimicrobial activity against Toxoplasma gondii RH containing alpha1-tubulin F24H mutation infected in HFF cells by plaque assay
Assay type: functional, organism-based
pIC50: −log10 of the molar value.
readoutType: pIC50

COP(=S)(NC(C)C)Oc1ccc(C)cc1[N+](=O)[O-] (stereo not drawn)    5.00
CCCN(CCC)c1c([N+](=O)[O-])cc(C(C)C)cc1[N+](=O)[O-]    5.46
CCCN(CCC)c1c([N+](=O)[O-])cc(C(F)(F)F)cc1[N+](=O)[O-]    5.38
C=C(C)CN(CC)c1c([N+](=O)[O-])cc(C(F)(F)F)cc1[N+](=O)[O-]    5.68
CCCN(CC1CC1)c1c([N+](=O)[O-])cc(C(F)(F)F)cc1[N+](=O)[O-]    5.37
CCN(CC)c1c([N+](=O)[O-])cc(C(F)(F)F)c(N)c1[N+](=O)[O-]    6.43
CCC(CC)Nc1c([N+](=O)[O-])cc(C)c(C)c1[N+](=O)[O-]    5.49
CCCN(CCC)c1c([N+](=O)[O-])cc(S(=O)(=O)Nc2ccccc2)cc1[N+](=O)[O-]    4.76
CCCN(CCC)c1c([N+](=O)[O-])cc(S(C)(=O)=O)cc1[N+](=O)[O-]    5.43
CCCCN(CC)c1c([N+](=O)[O-])cc(C(F)(F)F)cc1[N+](=O)[O-]    4.80
CCCN(CCCl)c1c([N+](=O)[O-])cc(C(F)(F)F)cc1[N+](=O)[O-]    5.49
CCC(C)Nc1c([N+](=O)[O-])cc(C(C)(C)C)cc1[N+](=O)[O-] (stereo not drawn)    4.62
CCCN(CCC)c1c([N+](=O)[O-])cc(S(N)(=O)=O)cc1[N+](=O)[O-]    5.90

* * *

System: Toxoplasma gondii
Test: Antimicrobial activity against Toxoplasma gondii RH containing alpha1-tubulin V4L mutation infected in HFF cells by plaque assay
Assay type: functional, organism-based
Recorded measurements of IC50, one per entry
readoutType: IC50 (µM)

CCCN(CCC)c1c([N+](=O)[O-])cc(C(C)C)cc1[N+](=O)[O-] [ISOPROPALIN]    7
CCCN(CCC)c1c([N+](=O)[O-])cc(S(C)(=O)=O)cc1[N+](=O)[O-] [NITRALIN]    19.2
COP(=S)(NC(C)C)Oc1ccc(C)cc1[N+](=O)[O-] (stereo not drawn) [AMIPROPHOS METHYL]    2.1
CCCN(CCCl)c1c([N+](=O)[O-])cc(C(F)(F)F)cc1[N+](=O)[O-] [FLUCHLORALIN]    8
CCCN(CCC)c1c([N+](=O)[O-])cc(C(F)(F)F)cc1[N+](=O)[O-] [TRIFLURALIN]    13.8
CCC(C)Nc1c([N+](=O)[O-])cc(C(C)(C)C)cc1[N+](=O)[O-] (stereo not drawn) [BUTRALIN]    32.1
CCN(CC)c1c([N+](=O)[O-])cc(C(F)(F)F)c(N)c1[N+](=O)[O-] [DINITRAMINE]    3.4
CCCN(CCC)c1c([N+](=O)[O-])cc(S(N)(=O)=O)cc1[N+](=O)[O-] [ORYZALIN]    14.7

* * *

Test system: Toxoplasma gondii
Assay: Antimicrobial activity against Toxoplasma gondii RH containing alpha1-tubulin L136F mutation infected in HFF cells by plaque assay
Format: functional, organism-based
pIC50: −log10 of the molar value.
readoutType: pIC50

CCCN(CCCl)c1c([N+](=O)[O-])cc(C(F)(F)F)cc1[N+](=O)[O-] [FLUCHLORALIN]    4.65
CCCN(CCC)c1c([N+](=O)[O-])cc(S(N)(=O)=O)cc1[N+](=O)[O-] [ORYZALIN]    4.56
CCC(C)Nc1c([N+](=O)[O-])cc(C(C)(C)C)cc1[N+](=O)[O-] (stereo not drawn) [BUTRALIN]    4.49
CCCN(CC1CC1)c1c([N+](=O)[O-])cc(C(F)(F)F)cc1[N+](=O)[O-] [PROFLURALIN]    4.67
CCCCN(CC)c1c([N+](=O)[O-])cc(C(F)(F)F)cc1[N+](=O)[O-] [BENFLURALIN]    4.56
CCCN(CCC)c1c([N+](=O)[O-])cc(S(=O)(=O)Nc2ccccc2)cc1[N+](=O)[O-]    5.01
CCCN(CCC)c1c([N+](=O)[O-])cc(C(C)C)cc1[N+](=O)[O-] [ISOPROPALIN]    4.82
CCN(CC)c1c([N+](=O)[O-])cc(C(F)(F)F)c(N)c1[N+](=O)[O-] [DINITRAMINE]    4.90
CCCN(CCC)c1c([N+](=O)[O-])cc(S(C)(=O)=O)cc1[N+](=O)[O-] [NITRALIN]    4.50
CCCN(CCC)c1c([N+](=O)[O-])cc(C(F)(F)F)cc1[N+](=O)[O-] [TRIFLURALIN]    4.57
CCC(CC)Nc1c([N+](=O)[O-])cc(C)c(C)c1[N+](=O)[O-] [PENDIMETHALIN]    4.88
C=C(C)CN(CC)c1c([N+](=O)[O-])cc(C(F)(F)F)cc1[N+](=O)[O-] [ETHALFLURALIN]    4.62
COP(=S)(NC(C)C)Oc1ccc(C)cc1[N+](=O)[O-] (stereo not drawn) [AMIPROPHOS METHYL]    4.55

* * *

Tested on: Toxoplasma gondii
Experiment: Antimicrobial activity against Toxoplasma gondii RH containing alpha1-tubulin R243C mutation infected in HFF cells by plaque assay
Assay type: functional, organism-based
readoutType: IC50

COP(=S)(NC(C)C)Oc1ccc(C)cc1[N+](=O)[O-] (stereo not drawn)    5.9 µM
CCCN(CCC)c1c([N+](=O)[O-])cc(C(F)(F)F)cc1[N+](=O)[O-]    4.1 µM
CCCN(CCC)c1c([N+](=O)[O-])cc(S(C)(=O)=O)cc1[N+](=O)[O-]    4.3 µM
CCN(CC)c1c([N+](=O)[O-])cc(C(F)(F)F)c(N)c1[N+](=O)[O-]    0.33 µM
CCC(CC)Nc1c([N+](=O)[O-])cc(C)c(C)c1[N+](=O)[O-]    1.1 µM
CCCN(CCC)c1c([N+](=O)[O-])cc(S(=O)(=O)Nc2ccccc2)cc1[N+](=O)[O-]    17 µM
CCCN(CCC)c1c([N+](=O)[O-])cc(S(N)(=O)=O)cc1[N+](=O)[O-]    2.2 µM
CCCN(CCC)c1c([N+](=O)[O-])cc(C(C)C)cc1[N+](=O)[O-]    4 µM
CCCCN(CC)c1c([N+](=O)[O-])cc(C(F)(F)F)cc1[N+](=O)[O-]    12 µM
CCCN(CC1CC1)c1c([N+](=O)[O-])cc(C(F)(F)F)cc1[N+](=O)[O-]    3.2 µM
C=C(C)CN(CC)c1c([N+](=O)[O-])cc(C(F)(F)F)cc1[N+](=O)[O-]    1.6 µM
CCCN(CCCl)c1c([N+](=O)[O-])cc(C(F)(F)F)cc1[N+](=O)[O-]    2.2 µM
CCC(C)Nc1c([N+](=O)[O-])cc(C(C)(C)C)cc1[N+](=O)[O-] (stereo not drawn)    12.8 µM
